The reported numbers originate from PubChem BioAssay (EPA / NIEHS).

# Read-out: Human Leukocyte Antigen - DR isotype (HLADR), HLA-DRA (gene 3122)
# ASSAY_INFO: BSK_BE3C_HLADR: BioMAP Diversity Plus: BE3C Assay for Human Leukocyte Antigen - DR isotype (HLADR) Biomarker Activity (AID 2283032)
# RUN_PARAMETERS: primary human bronchial epithelial cells; actives raise or lower the signal
Activity calls are given as the source filed them. How the source made its calls: active means hit-call score of the fitted dose curve at least 0.9, where 1 is the maximum; inactive means score below 0.9.
Pick one and only one: Y (active), N (inactive)

Field: example entries. Status: answers known.
IC(I)I | N
CN(c1nccc(=O)[nH]1)C1CCN(c2nc3ccccc3n2Cc2ccc(F)cc2)CC1 | N
CCOC(=O)C(C#N)=C(c1ccccc1)c1ccccc1 | N
CCCCN(CCCC)C(=O)N(CCCC)CCCC | Y

Kindly provide the recorded test outcome for the following molecule: `c1ccc2cc(Nc3ccc(Nc4ccc5ccccc5c4)cc3)ccc2c1`
N

Kindly provide the recorded test outcome for the following molecule: `C[C@@H]1CCN(C(=O)[C@H](CCCN=C(N)N)NS(=O)(=O)c2cccc3c2NC[C@H](C)C3)[C@@H](C(=O)O)C1`
N
